Where do the numbers come from? From patent US10301270B2.

Test: Photo-lability of complex 3 in ambient light (NMR, UV/Vis/NIR)
Format: physicochemical
Conditions: CDCl3 solution in an NMR tube, NMR, read-out: Calculated half-life of photo-degradation based on all integration data (converted)
PROPERTY_LABEL: half-life at 2.9 mg/mL (h)
Output spec: scalar in h, unitless text.

Bench note: what half-life at 2.9 mg/mL did CC(=O)OC1C2C=CC1C1C2[S]2=[Ni]3(=[S]1C(c1ccccc1)=C(c1ccccc1)[S]3)[S]C(c1ccccc1)=C2c1ccccc1 (stereo not shown) show? 34.8
